system: TsA-201 cells; assay: Cytotoxicity test (trypan blue cell counting); format: cell-based; settings: Homo sapiens, tsA201, 24 h, read-out: EC50, concentration of the inhibitor required to induce 50% of cell death
pEC50: −log10 of the molar value.
metric name: pEC50

`Oc1cc2ccccc2c2ccccc12` yielded pEC50 of ~4.70

----------
molecular target: mouse TRPM4 (Mus musculus, UniProt Q7TN37); construct: expressed in transfected cells; test: Inside-out patch clamp on TsA-201 cells stably expressing mouse TRPM4; assay type: cell-based; conditions: inside-out patch, bath solution, 300 μM calcium, +100 mV, Hill fit, n = 6; read-out: IC50 on mouse TRPM4 current, intracellular application
Sequence (Q7TN37 whole entry): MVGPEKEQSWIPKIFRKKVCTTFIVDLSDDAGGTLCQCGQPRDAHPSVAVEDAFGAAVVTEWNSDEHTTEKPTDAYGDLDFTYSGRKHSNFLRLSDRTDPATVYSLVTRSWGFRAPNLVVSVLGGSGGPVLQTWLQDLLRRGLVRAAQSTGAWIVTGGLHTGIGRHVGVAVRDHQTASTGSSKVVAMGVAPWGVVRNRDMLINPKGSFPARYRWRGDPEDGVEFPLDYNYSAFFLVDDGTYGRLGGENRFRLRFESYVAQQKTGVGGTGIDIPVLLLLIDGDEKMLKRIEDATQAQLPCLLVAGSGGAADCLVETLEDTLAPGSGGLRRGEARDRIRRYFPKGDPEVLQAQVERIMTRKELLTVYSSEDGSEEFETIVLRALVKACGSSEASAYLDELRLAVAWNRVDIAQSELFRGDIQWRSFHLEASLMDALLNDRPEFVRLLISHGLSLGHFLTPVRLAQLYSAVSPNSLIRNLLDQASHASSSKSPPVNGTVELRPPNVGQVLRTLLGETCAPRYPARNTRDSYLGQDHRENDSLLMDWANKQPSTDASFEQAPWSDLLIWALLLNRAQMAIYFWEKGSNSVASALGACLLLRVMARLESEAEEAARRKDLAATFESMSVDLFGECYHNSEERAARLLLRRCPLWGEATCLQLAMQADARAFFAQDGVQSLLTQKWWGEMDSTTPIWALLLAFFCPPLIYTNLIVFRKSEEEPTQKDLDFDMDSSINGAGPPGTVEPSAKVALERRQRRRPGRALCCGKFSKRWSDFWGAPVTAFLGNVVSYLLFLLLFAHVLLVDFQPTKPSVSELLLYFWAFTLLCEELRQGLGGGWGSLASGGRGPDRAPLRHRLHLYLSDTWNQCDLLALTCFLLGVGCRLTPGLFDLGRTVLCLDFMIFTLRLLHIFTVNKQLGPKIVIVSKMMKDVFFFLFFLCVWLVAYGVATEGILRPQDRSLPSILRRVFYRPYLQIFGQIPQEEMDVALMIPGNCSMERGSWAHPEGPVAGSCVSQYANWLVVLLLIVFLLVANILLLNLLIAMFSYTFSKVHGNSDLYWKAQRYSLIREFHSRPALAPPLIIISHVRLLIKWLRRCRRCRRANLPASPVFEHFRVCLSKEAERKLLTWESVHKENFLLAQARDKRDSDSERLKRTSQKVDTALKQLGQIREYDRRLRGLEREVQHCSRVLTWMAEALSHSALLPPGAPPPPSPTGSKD
metric name: IC50

IC50 measured on Nc1ncnc2c1ncn2[C@@H]1O[C@H](COP(=O)(O)OP(=O)(O)OP(=O)(O)O)[C@@H](O)[C@H]1O [ATP, adenosine triphosphate] = 1400 nM
